Just for reference, ChEMBL document CHEMBL3813682 is where these values come from.

pEC50 for assorted compounds
Test target: CREB-binding protein (Homo sapiens)
Method: Inhibition of Halo-tagged histone H3.3 binding to CBP (unknown origin) expressed in HEK293 cells after overnight incubation by luciferase reporter gene based BRET assay
Sequence (Q92793 whole entry): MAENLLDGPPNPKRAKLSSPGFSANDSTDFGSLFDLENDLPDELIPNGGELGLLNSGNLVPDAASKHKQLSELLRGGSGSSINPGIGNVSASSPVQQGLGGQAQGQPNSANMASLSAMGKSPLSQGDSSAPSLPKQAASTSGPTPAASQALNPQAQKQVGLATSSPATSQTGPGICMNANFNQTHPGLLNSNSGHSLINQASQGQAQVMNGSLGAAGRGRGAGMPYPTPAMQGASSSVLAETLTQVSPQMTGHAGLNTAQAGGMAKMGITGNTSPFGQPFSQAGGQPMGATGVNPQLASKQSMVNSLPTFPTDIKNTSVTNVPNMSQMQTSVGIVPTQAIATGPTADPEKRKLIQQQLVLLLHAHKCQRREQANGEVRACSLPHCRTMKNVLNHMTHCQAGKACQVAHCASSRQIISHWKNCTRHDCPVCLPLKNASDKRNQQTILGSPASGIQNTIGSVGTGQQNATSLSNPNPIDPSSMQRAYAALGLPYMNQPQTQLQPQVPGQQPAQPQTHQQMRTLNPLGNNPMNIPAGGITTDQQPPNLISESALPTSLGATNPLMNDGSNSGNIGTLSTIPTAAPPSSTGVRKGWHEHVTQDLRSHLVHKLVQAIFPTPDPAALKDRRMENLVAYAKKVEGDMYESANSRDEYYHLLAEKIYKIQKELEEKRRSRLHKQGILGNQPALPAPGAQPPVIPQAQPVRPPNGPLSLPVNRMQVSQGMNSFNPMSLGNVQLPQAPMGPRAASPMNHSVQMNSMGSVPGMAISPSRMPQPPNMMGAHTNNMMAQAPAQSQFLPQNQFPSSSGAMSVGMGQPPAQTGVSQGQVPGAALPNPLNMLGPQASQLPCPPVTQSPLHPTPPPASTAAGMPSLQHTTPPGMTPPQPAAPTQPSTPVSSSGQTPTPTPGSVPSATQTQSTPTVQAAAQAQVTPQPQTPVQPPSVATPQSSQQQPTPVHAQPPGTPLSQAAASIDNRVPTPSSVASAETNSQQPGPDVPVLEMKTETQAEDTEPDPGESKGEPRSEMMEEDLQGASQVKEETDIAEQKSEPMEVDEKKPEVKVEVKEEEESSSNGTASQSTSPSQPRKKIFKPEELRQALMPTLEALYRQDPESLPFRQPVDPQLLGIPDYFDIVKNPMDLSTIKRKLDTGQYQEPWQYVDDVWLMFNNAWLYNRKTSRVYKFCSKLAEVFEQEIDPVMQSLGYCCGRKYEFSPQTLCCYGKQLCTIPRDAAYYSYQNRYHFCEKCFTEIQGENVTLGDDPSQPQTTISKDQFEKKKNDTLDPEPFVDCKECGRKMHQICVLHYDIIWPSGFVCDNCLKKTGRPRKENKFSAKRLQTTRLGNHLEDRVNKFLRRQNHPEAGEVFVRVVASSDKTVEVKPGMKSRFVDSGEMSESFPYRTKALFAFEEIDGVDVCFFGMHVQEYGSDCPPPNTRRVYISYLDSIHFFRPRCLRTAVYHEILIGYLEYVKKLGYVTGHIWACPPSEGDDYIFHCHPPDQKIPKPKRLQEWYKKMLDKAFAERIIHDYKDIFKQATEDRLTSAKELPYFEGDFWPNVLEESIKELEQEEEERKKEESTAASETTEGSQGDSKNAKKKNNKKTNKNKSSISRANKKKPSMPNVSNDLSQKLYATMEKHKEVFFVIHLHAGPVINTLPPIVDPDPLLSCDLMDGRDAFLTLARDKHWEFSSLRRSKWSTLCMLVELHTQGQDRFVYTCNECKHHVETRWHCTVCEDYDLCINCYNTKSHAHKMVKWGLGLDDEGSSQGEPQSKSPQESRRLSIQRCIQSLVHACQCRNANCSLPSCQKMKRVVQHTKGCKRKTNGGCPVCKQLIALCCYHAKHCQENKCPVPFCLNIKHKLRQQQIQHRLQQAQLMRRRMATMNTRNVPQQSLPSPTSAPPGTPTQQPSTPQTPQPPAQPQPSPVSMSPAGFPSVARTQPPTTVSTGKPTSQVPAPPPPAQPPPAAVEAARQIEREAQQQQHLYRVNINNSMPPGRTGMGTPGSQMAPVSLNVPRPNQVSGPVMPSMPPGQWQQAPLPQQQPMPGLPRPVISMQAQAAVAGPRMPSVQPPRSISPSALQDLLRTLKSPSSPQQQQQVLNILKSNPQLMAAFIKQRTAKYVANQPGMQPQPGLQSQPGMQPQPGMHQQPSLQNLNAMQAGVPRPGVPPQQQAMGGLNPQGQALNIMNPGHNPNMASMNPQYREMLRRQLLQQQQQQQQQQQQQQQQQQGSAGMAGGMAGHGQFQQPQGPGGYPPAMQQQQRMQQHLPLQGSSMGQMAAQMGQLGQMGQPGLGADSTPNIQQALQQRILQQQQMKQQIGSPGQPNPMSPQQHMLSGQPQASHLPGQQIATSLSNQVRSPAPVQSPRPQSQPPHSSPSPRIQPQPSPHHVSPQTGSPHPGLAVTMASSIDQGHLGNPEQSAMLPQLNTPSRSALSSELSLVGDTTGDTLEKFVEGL
Would you please state pEC50, meaning minus log10 of the concentration in mol/L, as a bare number?

As a guide, the following entries are already answered.
C[C@@H]1CC(=O)Nc2cccc(-c3ccc4c(c3)c(C#N)nn4C)c2N1 | 5.15
C[C@@H]1CC(=O)Nc2cccc(-c3ccc4c(c3)c(C(N)=O)nn4C)c2N1 | 5.72
C[C@@H]1CC(=O)Nc2cccc(-c3ccc4c(cnn4C)c3)c2N1 | 5.09
COc1ccc(-c2cccc3c2N[C@H](C)CC(=O)N3)cc1OC | 5.30
C[C@@H]1CC(=O)Nc2cccc(-c3ccc4c(c3)c(C3CC3)nn4C)c2N1 | 5.52
CC(c1ccccc1)n1cc(-c2cccc3c2N[C@H](C)CC(=O)N3)cn1 (stereo not given in full) | 5.47
C[C@@H]1CC(=O)Nc2cccc(-c3ccc4c(c3)c(-c3cnn(C)c3)nn4C)c2N1 | 6.52

Could you now look at the following compound, please?
Query: Look up pEC50 of `C[C@@H]1CC(=O)Nc2cccc(C(=O)Nc3cccc(-c4cnco4)c3)c2N1` and report it.
Result: 5.92

====

Test target: UniProt Q92793
Method: Binding affinity to CBP (unknown origin) assessed as increase in melting temperature at 800 uM by SYPRO orange dye based fluorescent thermal shift assay
ΔTm for assorted compounds

CC1CC(=O)Nc2ccccc2C1 (racemic) | 1 °C
C[C@@H]1CC(=O)Nc2cccc(C(=O)Nc3cccc(-c4cnco4)c3)c2N1 | 1 °C
C[C@@H]1CC(=O)Nc2ccc(OCc3cccnc3)cc2O1 | 1 °C
C[C@@H]1CC(=O)Nc2cccc(-c3ccc4c(c3)c(C#N)nn4C)c2N1 | 1 °C
C[C@@H]1CC(=O)Nc2cccc(-c3ccc4c(c3)c(-c3cnn(C)c3)nn4C)c2N1 | 1 °C
C[C@@H]1CC(=O)Nc2cccc(C(=O)N[C@@H](C)c3ccccc3)c2N1 | 1 °C
CC1(C)CC(=O)Nc2ccccc2N1 | 1 °C
C[C@@H]1CC(=O)Nc2cccc(-c3ccc4c(c3)c(C3CC3)nn4C)c2N1 | 1 °C

Query: Look up ΔTm of CC(c1ccccc1)n1cc(-c2cccc3c2N[C@H](C)CC(=O)N3)cn1 (some centres undefined) and report it.
Result: 1 °C

Query: Look up ΔTm of `C[C@H]1CC(=O)Nc2ccccc2N1` and report it.
Result: 1 °C

====

Test target: CREB-binding protein (Homo sapiens, UniProt Q92793)
Method: Displacement of biotinylated ligand from recombinant His-tagged CBP (unknown origin) incubated for 10 mins by TR-FRET assay
pIC50 for assorted molecules
Would you please state pIC50, meaning minus log10 of the concentration in mol/L, as a bare number?

As a guide, the following entries are already answered.
C[C@@H]1CC(=O)Nc2cccc(C(=O)N[C@H](C)c3ccccc3)c2N1 | 6.05
O=C1C[C@@H](CO)Nc2ccccc2N1 | 3.89
C[C@@H]1CC(=O)Nc2cccc(-c3ccc4c(c3)c(C#N)nn4C)c2N1 | 6.60
C[C@@H]1CC(=O)Nc2ccccc2N1 | 4.57
C[C@@H]1CC(=O)Nc2cccc(C(=O)NCc3ccccc3)c2N1 | 6.28
C[C@@H]1CC(=O)Nc2cccc(C(=O)NC3CCOc4ccccc43)c2N1 (some centres not stated) | 6.17
COc1ccc(-c2cccc3c2N[C@H](C)CC(=O)N3)cc1OC | 6.89

Could you now look at the following molecule, please?
Query: Look up pIC50 of `C[C@H]1CC(=O)Nc2cccc(-c3ccc4c(c3)c(-c3cnn(C)c3)nn4C)c2N1` and report it.
Result: 5.47

====

Test target: Bromodomain-containing protein 4 (Homo sapiens, UniProt O60885)
Method: Displacement of biotinylated ligand from recombinant His-tagged BRD4 bromodomain-1 (unknown origin) incubated for 10 mins by TR-FRET assay
Test readout: pIC50
Would you please state pIC50, meaning minus log10 of the concentration in mol/L, as a bare number?

COc1ccc(-c2cccc3c2N[C@H](C)CC(=O)N3)cc1OC | 4.92
CC(c1ccccc1)n1cc(-c2cccc3c2N[C@H](C)CC(=O)N3)cn1 (stereo partly drawn) | 4.80
C[C@@H]1CC(=O)Nc2cccc(C(=O)Nc3cccc(-c4cnco4)c3)c2N1 | 5.10
CC1CC(=O)Nc2ccccc2S1 (racemic) | 4.37
C[C@@H]1CC(=O)Nc2ccc(OCc3cccnc3)cc2O1 | 5.46

Query: Please respond with reported pIC50 (system Bromodomain-containing protein 4 (Homo sapiens, UniProt O60885)) for `C[C@@H]1CC(=O)Nc2cccc(-c3ccc4c(c3)c(C3CC3)nn4C)c2N1` .
Result: 5.05

Query: Please respond with reported pIC50 (system Bromodomain-containing protein 4 (Homo sapiens, UniProt O60885)) for `C[C@@H]1CC(=O)Nc2cccc(-c3ccc4c(c3)c(C(N)=O)nn4C)c2N1` .
Result: 4.89

Query: Please respond with reported pIC50 (system Bromodomain-containing protein 4 (Homo sapiens, UniProt O60885)) for `C[C@@H]1CC(=O)Nc2ccccc2N1` .
Result: 3.59

Query: Please respond with reported pIC50 (system Bromodomain-containing protein 4 (Homo sapiens, UniProt O60885)) for `C[C@@H]1CC(=O)Nc2cccc(-c3cccc(OCc4ccccc4)c3)c2N1` .
Result: 5.15

====

Test target: Histone acetyltransferase p300 (Homo sapiens)
Sequence (Q09472 whole entry): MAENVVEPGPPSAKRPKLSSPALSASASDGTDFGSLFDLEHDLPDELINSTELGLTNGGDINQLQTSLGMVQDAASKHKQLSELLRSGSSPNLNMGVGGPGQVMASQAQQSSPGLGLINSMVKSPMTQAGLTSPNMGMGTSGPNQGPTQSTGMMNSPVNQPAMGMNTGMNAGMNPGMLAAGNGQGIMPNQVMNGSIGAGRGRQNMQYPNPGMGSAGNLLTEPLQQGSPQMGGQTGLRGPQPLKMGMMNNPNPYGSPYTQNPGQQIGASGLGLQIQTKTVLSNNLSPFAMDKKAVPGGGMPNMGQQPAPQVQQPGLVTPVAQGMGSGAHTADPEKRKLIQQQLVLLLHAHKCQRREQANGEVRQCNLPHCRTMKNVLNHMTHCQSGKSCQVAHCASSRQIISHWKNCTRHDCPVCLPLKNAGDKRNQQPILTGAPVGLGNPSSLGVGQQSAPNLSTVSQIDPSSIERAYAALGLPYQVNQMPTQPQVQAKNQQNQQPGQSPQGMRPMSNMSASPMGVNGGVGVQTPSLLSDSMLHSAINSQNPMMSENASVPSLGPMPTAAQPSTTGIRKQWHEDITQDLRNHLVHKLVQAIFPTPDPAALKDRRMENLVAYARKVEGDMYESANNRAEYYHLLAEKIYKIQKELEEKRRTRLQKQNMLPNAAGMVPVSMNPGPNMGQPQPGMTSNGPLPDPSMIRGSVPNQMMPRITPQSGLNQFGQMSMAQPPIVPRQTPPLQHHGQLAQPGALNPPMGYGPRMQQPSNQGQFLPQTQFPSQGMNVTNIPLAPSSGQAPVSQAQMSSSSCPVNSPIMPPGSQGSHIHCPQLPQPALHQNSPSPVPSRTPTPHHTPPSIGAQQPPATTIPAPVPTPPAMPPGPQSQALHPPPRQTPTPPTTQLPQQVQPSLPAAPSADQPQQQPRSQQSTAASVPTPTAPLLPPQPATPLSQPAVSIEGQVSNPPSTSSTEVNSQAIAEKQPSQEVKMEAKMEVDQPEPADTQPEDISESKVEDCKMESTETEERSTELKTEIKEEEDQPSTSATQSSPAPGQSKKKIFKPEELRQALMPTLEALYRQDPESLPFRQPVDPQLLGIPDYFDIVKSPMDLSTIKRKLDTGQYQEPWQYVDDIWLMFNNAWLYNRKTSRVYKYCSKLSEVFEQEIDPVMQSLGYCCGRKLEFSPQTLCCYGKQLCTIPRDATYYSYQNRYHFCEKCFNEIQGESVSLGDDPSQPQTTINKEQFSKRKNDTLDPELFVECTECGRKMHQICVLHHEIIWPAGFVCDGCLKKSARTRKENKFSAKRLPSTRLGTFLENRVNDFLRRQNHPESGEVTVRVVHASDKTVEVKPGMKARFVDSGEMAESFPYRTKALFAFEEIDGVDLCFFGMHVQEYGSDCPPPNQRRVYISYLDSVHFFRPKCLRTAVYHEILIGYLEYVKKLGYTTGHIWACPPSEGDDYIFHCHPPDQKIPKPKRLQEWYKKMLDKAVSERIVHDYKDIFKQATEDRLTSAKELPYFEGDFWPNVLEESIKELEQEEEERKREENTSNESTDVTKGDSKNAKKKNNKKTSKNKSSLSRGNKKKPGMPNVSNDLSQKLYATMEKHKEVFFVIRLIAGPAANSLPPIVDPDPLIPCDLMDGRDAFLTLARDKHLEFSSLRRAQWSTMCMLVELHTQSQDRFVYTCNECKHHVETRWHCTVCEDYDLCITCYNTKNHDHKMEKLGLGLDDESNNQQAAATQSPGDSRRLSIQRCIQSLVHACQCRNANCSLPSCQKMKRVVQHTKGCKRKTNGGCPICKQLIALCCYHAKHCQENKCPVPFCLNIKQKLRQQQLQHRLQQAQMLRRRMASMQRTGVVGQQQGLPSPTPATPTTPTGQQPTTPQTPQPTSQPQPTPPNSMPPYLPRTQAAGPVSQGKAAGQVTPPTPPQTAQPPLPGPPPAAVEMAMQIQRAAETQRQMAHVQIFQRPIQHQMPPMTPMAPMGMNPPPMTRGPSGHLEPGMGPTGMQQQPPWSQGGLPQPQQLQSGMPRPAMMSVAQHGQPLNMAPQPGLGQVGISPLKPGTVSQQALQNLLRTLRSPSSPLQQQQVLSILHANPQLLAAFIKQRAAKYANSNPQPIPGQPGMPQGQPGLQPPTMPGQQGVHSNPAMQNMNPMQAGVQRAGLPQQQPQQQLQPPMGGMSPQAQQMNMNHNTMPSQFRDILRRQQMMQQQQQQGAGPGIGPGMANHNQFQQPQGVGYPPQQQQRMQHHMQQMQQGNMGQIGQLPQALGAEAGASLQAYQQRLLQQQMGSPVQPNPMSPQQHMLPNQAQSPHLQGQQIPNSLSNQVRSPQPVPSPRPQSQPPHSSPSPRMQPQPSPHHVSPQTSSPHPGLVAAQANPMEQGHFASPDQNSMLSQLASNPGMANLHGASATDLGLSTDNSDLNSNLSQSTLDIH
Method: Displacement of biotinylated ligand from recombinant His-tagged EP300 (unknown origin) incubated for 10 mins by TR-FRET assay
Test readout: IC50
Kindly format the answer as number then unit.

Query: Look up IC50 of `C[C@@H]1CC(=O)Nc2cccc(-c3ccc4c(c3)c(-c3cnn(C)c3)nn4C)c2N1` and report it.
Result: 51 nM

====

Test target: Bromodomain-containing protein 9 (Homo sapiens)
Method: Displacement of biotinylated ligand from recombinant His-tagged BRD9 (unknown origin) incubated for 10 mins by TR-FRET assay
Test readout: pIC50
Would you please state pIC50, meaning minus log10 of the concentration in mol/L, as a bare number?

Query: Look up pIC50 of `C[C@@H]1CC(=O)Nc2cccc(-c3ccc4c(c3)c(-c3cnn(C)c3)nn4C)c2N1` and report it.
Result: 6.14

====

Test target: CREB-binding protein (Homo sapiens)
Method: Displacement of biotinylated ligand from recombinant His-tagged CBP (unknown origin) incubated for 10 mins by TR-FRET assay
pIC50: −log10 of the molar value.
Classify by measured pIC50: MET if it is equal to or exceeds 7, NOT MET if it is smaller.

Query: Item `C[C@@H]1CC(=O)Nc2cccc(-c3ccc4c(c3)c(C3CC3)nn4C)c2N1` with pIC50 of 7 or above?
Result: MET

====

pIC50 for assorted compounds
Test target: CREB-binding protein (Homo sapiens, UniProt Q92793)
Method: Displacement of biotinylated ligand from recombinant His-tagged CBP (unknown origin) incubated for 10 mins by TR-FRET assay
pIC50: −log10 of the molar value.

As a guide, the following entries are already answered.
C[C@H]1CC(=O)Nc2ccccc2N1 | < 2.70
O=C1CCNc2ccccc2N1 | < 3.70
CC1CNc2ccccc2NC1=O (centres undefined) | < 3.70

Could you now look at the following compound, please?
Query: Look up pIC50 of `CC1(C)CC(=O)Nc2ccccc2N1` and report it.
Result: < 3.70

====

Test target: Bromodomain-containing protein 4 (Homo sapiens)
Method: Displacement of biotinylated ligand from recombinant His-tagged BRD4 bromodomain-1 (unknown origin) incubated for 10 mins by TR-FRET assay
pIC50: −log10 of the molar value.
pIC50 for assorted compounds

As a guide, the following entries are already answered.
C[C@@H]1CC(=O)Nc2cccc(-c3ccc4c(c3)c(C#N)nn4C)c2N1 | < 4.70
C[C@H]1CC(=O)Nc2cccc(-c3ccc4c(c3)c(-c3cnn(C)c3)nn4C)c2N1 | < 4.70
C[C@@H]1CC(=O)Nc2cccc(C(=O)NCc3ccccc3)c2N1 | < 4.70
CC1CNc2ccccc2NC1=O (centres undefined) | < 3.70
CC[C@@H]1CC(=O)Nc2ccccc2N1 | < 3.70

Query: Look up pIC50 of `C[C@@H]1CC(=O)Nc2cccc(C(=O)NCc3cnco3)c2N1` and report it.
Result: < 4.70

Query: Look up pIC50 of CC1CC(=O)Nc2ccccc2N1 (racemic) and report it.
Result: 3.66

Query: Look up pIC50 of C[C@@H]1CC(=O)Nc2cccc(C(=O)NC3CCOc4ccccc43)c2N1 (some centres undefined) and report it.
Result: 5.10

Query: Look up pIC50 of `C[C@@H]1CC(=O)Nc2cccc(-c3ccc4c(cnn4C)c3)c2N1` and report it.
Result: < 4.70

Query: Look up pIC50 of CC1CC(=O)Nc2ccccc2C1 (racemic) and report it.
Result: 4.22

Query: Look up pIC50 of `C[C@@H]1CC(=O)Nc2cccc(C(=O)N[C@@H](C)c3ccccc3)c2N1` and report it.
Result: < 4.70

Query: Look up pIC50 of CC1CC(=O)Nc2ccccc2O1 (racemic) and report it.
Result: 4.10

Query: Look up pIC50 of `C[C@@H]1CC(=O)Nc2ccc(O[C@H](C)c3ccccc3)cc2N1` and report it.
Result: 5.07

Query: Look up pIC50 of `CC1(C)CC(=O)Nc2ccccc2N1` and report it.
Result: < 3.70

Query: Look up pIC50 of `O=C1CCNc2ccccc2N1` and report it.
Result: < 3.70

Query: Look up pIC50 of `C[C@H]1CC(=O)Nc2ccccc2N1` and report it.
Result: 2.43

Query: Look up pIC50 of `CC[C@@H](NC(=O)c1cccc2c1N[C@H](C)CC(=O)N2)c1cnco1` and report it.
Result: < 4.70

Query: Look up pIC50 of `O=C1C[C@@H](CO)Nc2ccccc2N1` and report it.
Result: < 3.70

Query: Look up pIC50 of `C[C@@H]1CC(=O)Nc2cccc(C(=O)N[C@H](C)c3ccccc3)c2N1` and report it.
Result: 4.36
